Tested on: MS2 coat protein
protocol.details: apparent KD of MS2 coat protein, switch OFF state (with FMN for OFF switches, without FMN for ON switches); designed switch direction (-1 OFF switch, 1 ON switch): -1; higher = weaker reporter binding
applied.conditions: FMN input: 0 or 200 uM; Eterna round: R93 (includes R88 designs)
Kindly supply the reported apparent KD of MS2 coat protein values for the records listed here.

State recorded apparent KD of MS2 coat protein for all listed sequences.
1. GAAAGUGGAGGAUAUACAUGAGGAUCACCCAUGUGUAAAAAUAAAUACACAAAAGAAAGUAGAAGGCCACAAAG [Mat - Exclusion 3 - Mayanna mod - D118]
2. AAAAAGUGAGGAUAUACGCUGUGGAGUAGACACAACCAGGCGUAGAAGGCACAUGAGGAUCACCCAUGUCCAAA [EX4 Malc#18]
3. GGUUGUCGAGGAUAUACAUGAGGAUCACCCAUGUGAGAGAAAAAAGUGAGAAAGAAAAGUAGAAGGUGGUGACG [salish99-ex3-71]

[out]
["125 nM", "44.1 nM", "92.9 nM"]

====

Test system: K4 kissing-loop RNA reporter
protocol.details: apparent KD of K4 kissing-loop reporter; higher = weaker reporter binding
applied.conditions: Eterna round: R107; input ligand: FMN 200 uM
Classification field: enter Condition met for apparent KD of K4 kissing-loop reporter values not below 300 nM, Condition not met for values below it.

Observe how each entry below is paired with its result.
GGAGGGAUCUCGGCCGCCACUCGUGGGAAAUGGGCCUCAGGGAUAUAGUGAUGUUAUGUAAAGAAGAGGACCGGGAGAAGGAAGG [ExTryptoB.Dg]    Condition met
GGCAUGGUGACGCGGCUGCCAUACGCUUGGGAGGAUAUGUUUCGUGACAGAAGGCCCAGUGAUGUUGGGUCUGUUCAAAAGGACU [Arisus]    Condition met
UUACCAAGUGAUGUUUGGAAAUAUCCUAGGCAGGAUAUGCGGAAACGCAGAAGGGCCACCUUCUAGUGAAGGAAACUUCGCUAUU [Ex FMN A 3]    Condition not met
AAGUACACGAUAGUGUACACCUAGUGAUGUUAGGAUAUGCAGAUAUGCAGAAGGAACAAGUCAUCUGACAAUAGUCGGAUGACAA [FmnAX 6 #OpenEnded #K4Early]    Condition met
CUUGGAAGGACGGCCGCCACUGGGCAGUGAUGUUGCCCGACCAGGUAACGCAGUGAUGUUGCGACCAGGACCGGGUCCUAGGAAU [Exclusion Tryptophan B GF 24]    Condition not met

[in] Item GGCGCCAGGAAAGGAUAUCUAAGUCUAUUAUCAAGAAUUGCCUCAAGAUCGGAGUGAUGUUCCCAGAGAGAAGGUUCUAUCCGCU [theeternabot_exclusion_KL_FMN_B_38] with apparent KD of K4 kissing-loop reporter of 300 nM or above?
[out] Condition not met

====

Test system: K4 kissing-loop RNA reporter;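 note: bound reporter read as fluorescence of individual clusters on recovered sequencing chips by microscopy, with normalized cluster intensities fitted with a binding model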
protocol.details: apparent KD of K4 kissing-loop reporter; higher = weaker reporter binding
applied.conditions: Eterna round: R107; input ligand: theophylline 20 uM
Hi there, I'd appreciate the recorded apparent KD of K4 kissing-loop reporter for every entry that follows.
Numbers only, in nM.

CGCGCGCGCUGAGAGGCGCGCGCGAAUGAUACCAGUAUAUAAGAAUACCCUUGGCAGCAUAAGAAAGAUAUAGUGAUGUUGUAUA [SSTheophA.D]    201
GGCACUACAGCGGCCGCCACUGUUUAGUCCAUCGCUUGCGAGUGAUGUUCGUAGGUACUGCAGCUCAGGACCGGGCUGUCCUUAC [theeternabot_sameState_KL_Trp_B_34]    310
AGACUACCACACUGUCAAUAGACAGUGAACUAGGAUAUGCUGAUAAGCAGAAGGAGUGAUGUUCCUUGGUAGUCAAUAAAAUAAU [FmnAX 13 U67]    330
UGUCAUUGGUCUGAUACCAGAAGAUAAUCUGGAGUGAUGUUCCAAGUACGACAAAGUCGCUUCCCUUGGCAGCAGACCGAUGACU [TheoBS 19 #SwitchBubble 13 #StaticStem]    619
GUGGCGGGCCAAGGAUAUAUUUUGGAGUGAUGUUGUUCAUUUAUUUGAGCUAGUGAUGUUGGUCGAAUAGAAGGUGGCCCGCCAC [whbob_Ex_FMNB__2th220]    44.7

Please fill in: apparent KD of K4 kissing-loop reporter reported for UUGUUAUGAUAAAAUCCUGUUUGAUAAAGACAGGAUAUAGAAAAUACUAGAAGGGUCAUUAUAUGCAGUGAUGUUGCAAAUAAGU [Exclusion FMN A Gf 22] = 55.1
